Molecular target: T1, human Trop-2 expressed on cell surface (human, UniProt P09758 27-323)
T1 sequence (looked up): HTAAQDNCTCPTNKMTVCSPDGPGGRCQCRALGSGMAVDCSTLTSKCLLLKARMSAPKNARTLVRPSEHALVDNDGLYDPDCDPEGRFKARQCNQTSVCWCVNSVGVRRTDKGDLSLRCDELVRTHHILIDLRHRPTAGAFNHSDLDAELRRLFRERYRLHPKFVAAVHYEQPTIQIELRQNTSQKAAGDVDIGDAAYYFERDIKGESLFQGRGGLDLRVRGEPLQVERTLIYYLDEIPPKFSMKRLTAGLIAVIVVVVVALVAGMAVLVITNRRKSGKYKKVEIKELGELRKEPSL
Test: cell-based or functional assay
VALUE KIND: Internalization %, MDA-MB-231, 0.25 µg/ml, 2 h

Task item: Data request, read-out Internalization %, MDA-MB-231, 0.25 µg/ml, 2 h, for 72F12 (antibody, V domains shown, Rabbit-derived clone; LEM construct: VH + rabbit IgG CH1 + human IgG1 CH2-CH3) VH: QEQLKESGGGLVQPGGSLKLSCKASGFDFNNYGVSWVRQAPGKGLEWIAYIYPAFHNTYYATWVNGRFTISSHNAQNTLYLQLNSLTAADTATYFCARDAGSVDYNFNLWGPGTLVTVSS VL: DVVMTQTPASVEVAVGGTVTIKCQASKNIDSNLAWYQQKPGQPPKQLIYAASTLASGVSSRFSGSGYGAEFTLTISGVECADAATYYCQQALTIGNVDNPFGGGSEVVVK
Reply: 38%

Task item: Likewise for 9F7 (antibody, V domains shown, Rabbit-derived clone; LEM construct: VH + rabbit IgG CH1 + human IgG1 CH2-CH3) VH: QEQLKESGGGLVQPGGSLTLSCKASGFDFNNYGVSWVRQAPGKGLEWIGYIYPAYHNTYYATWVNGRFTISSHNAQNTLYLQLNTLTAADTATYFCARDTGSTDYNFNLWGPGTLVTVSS VL: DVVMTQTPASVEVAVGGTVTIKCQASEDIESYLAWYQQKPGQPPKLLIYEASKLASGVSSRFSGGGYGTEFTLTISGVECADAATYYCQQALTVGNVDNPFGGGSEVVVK ?
Reply: 34%

Note: attention shifts to another entry.
Task item: Data request, read-out Internalization %, MDA-MB-231, 0.25 µg/ml, 2 h, for 74F11/15F5 (antibody, human IgG1, V domains shown, LEM construct: VH + rabbit IgG CH1 + human IgG1 CH2-CH3) VH: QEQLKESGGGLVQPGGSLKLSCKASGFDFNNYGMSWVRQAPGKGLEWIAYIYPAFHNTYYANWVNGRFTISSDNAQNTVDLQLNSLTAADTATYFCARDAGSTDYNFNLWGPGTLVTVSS VL: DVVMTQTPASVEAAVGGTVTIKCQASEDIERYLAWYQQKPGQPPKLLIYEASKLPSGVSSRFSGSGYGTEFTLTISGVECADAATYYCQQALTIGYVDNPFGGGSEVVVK
Reply: 42%
